System: Aedes aegypti (mosquito larvae)
Experiment: Pest toxicity test
Format: in vivo
Settings: 0.01% by weight; water; 1 day
Observable: Mortality grading (kill)

[[record]]
compound = "O=[N+]([O-])c1ccc(Nc2c(Cl)c(Cl)nc(Cl)c2Cl)c(C(F)(F)F)c1 [Compound 41]"
result = "3 (3 represents over 90% kill)"

[[record]]
compound = "Fc1nc(F)c(Cl)c(Nc2ccccc2)c1Cl [Compound 2]"
result = "0 (O represents less than 30% kill)"

[[record]]
compound = "O=[N+]([O-])c1ccc(Nc2c(Cl)c(Cl)nc(Cl)c2Cl)c([N+](=O)[O-])c1 [Compound 8]"
result = "0 (O represents less than 30% kill)"

[[record]]
compound = "N#Cc1c(F)c(F)c(Nc2c(Cl)c(F)nc(F)c2Cl)c(F)c1F [Compound 19]"
result = "3 (3 represents over 90% kill)"

[[record]]
compound = "COc1ccc(Nc2c(Cl)c(F)nc(F)c2Cl)c([N+](=O)[O-])c1 [Compound 18]"
result = "0 (O represents less than 30% kill)"

[[record]]
compound = "O=[N+]([O-])c1ccccc1Nc1c(Cl)c(F)nc(F)c1Cl [Compound 11]"
result = "0 (O represents less than 30% kill)"

[[record]]
compound = "Fc1nc(F)c(Cl)c(Nc2c(Cl)c(F)c(Cl)c(F)c2Cl)c1Cl [Compound 43]"
result = "3 (3 represents over 90% kill)"

